Each recorded value in this set is attributed to patent US9809540B2.

assay: Solubility in simulated gastric/intestinal fluids and pH media; type: physicochemical; conditions: pH 4, aqueous buffer, thermodynamic from solid, Batch 3, pH 4.0, 0.5 hr
Counter-ions that a name gives are not always drawn.
property label: solubility at 0.5 h (µg/mL)
Give bare numbers, in µg/mL.

For the compound shown here, Cc1c(F)cccc1NC(=O)Nc1ccc(Cl)c(S(=O)(=O)[C@H]2CCCNC2)c1O [HBr Salt] , give the reported solubility at 0.5 h.
685

* * *

assay: Solubility in simulated gastric/intestinal fluids and pH media; assay type: physicochemical; settings: pH 8, aqueous buffer, thermodynamic from solid, Batch 3, pH 8.0, 24 hr
Where a name gives a salt, the structure may show the parent alone.
property label: solubility at 24 h (µg/mL)
Answers are plain numbers, in µg/mL.

Dear colleague, I am looking for the recorded solubility at 24 h of the following compound: Cc1c(F)cccc1NC(=O)Nc1ccc(Cl)c(S(=O)(=O)[C@H]2CCCNC2)c1O [HBr Salt]
8

* * *

test: Solubility in simulated gastric/intestinal fluids and pH media; type: physicochemical; conditions: pH 6, aqueous buffer, thermodynamic from solid, Batch 3, pH 6.0, 4 hr
Structures can show the parent of a compound that is named as a salt.
property label: solubility at 4 h (µg/mL)
Numbers only, in µg/mL.

Sample Cc1c(F)cccc1NC(=O)Nc1ccc(Cl)c(S(=O)(=O)[C@H]2CCCNC2)c1O [HBr Salt] — what was its solubility at 4 h?
13

* * *

assay: Solubility in simulated gastric/intestinal fluids and pH media; type: physicochemical; settings: fasted-state simulated intestinal fluid (Phares FaSSIF), pH 6.5, fassif, thermodynamic from solid, Batch 2, Phares FaSSif pH 6.5, 0.5 hr
Counter-ions that a name gives are not always drawn.
property label: solubility at 0.5 hr
Numeric answer plus unit only.

Looking for the measured solubility at 0.5 hr of Cc1c(F)cccc1NC(=O)Nc1ccc(Cl)c(S(=O)(=O)[C@H]2CCCNC2)c1O [HBr Salt] , can you help?
270 µg/mL

* * *

test: Solubility in simulated gastric/intestinal fluids and pH media; assay type: physicochemical; settings: SGF (simulated gastric fluid), pH 1.6, simulated gastric fluid, thermodynamic from solid, Batch 2, SGF pH 1.6, 24 hr
Counter-ions that a name gives are not always drawn.
property label: solubility at 24 h (µg/mL)
Give bare numbers, in µg/mL.

Given Cc1c(F)cccc1NC(=O)Nc1ccc(Cl)c(S(=O)(=O)[C@H]2CCCNC2)c1O [HBr Salt] , state its recorded solubility at 24 h.
800

* * *

test: Solubility in simulated gastric/intestinal fluids and pH media; assay type: physicochemical; conditions: SGF (simulated gastric fluid), pH 1.6, simulated gastric fluid, thermodynamic from solid, SGF pH1.6, 0.5 hr
property label: solubility at 0.5 h (µg/mL)
Give bare numbers, in µg/mL.

Can you share its solubility at 0.5 h? I mean this molecule: Cc1c(F)cccc1NC(=O)Nc1ccc(Cl)c(S(=O)(=O)[C@H]2CCCNC2)c1O [Micronised free base, reference compound]
715

* * *

test: Solubility in simulated gastric/intestinal fluids and pH media; format: physicochemical; conditions: fasted-state simulated intestinal fluid (Phares FaSSIF), pH 6.5, fassif, thermodynamic from solid, Batch 3, Phares FaSSif pH 6.5, 24 hr
Where a name gives a salt, the structure may show the parent alone.
property label: solubility at 24 hr
Please make sure the unit comes right after the number.

// returns reported solubility at 24 hr for input Cc1c(F)cccc1NC(=O)Nc1ccc(Cl)c(S(=O)(=O)[C@H]2CCCNC2)c1O [HBr Salt]
56 µg/mL

* * *

assay: Solubility in simulated gastric/intestinal fluids and pH media; type: physicochemical; details: pH 6, aqueous buffer, thermodynamic from solid, Batch 3, pH 6.0, 24 hr
Counter-ions that a name gives are not always drawn.
property label: solubility at 24 h (µg/mL)
Answers are plain numbers, in µg/mL.

GET /values?readout=solubility at 24 h&item= Cc1c(F)cccc1NC(=O)Nc1ccc(Cl)c(S(=O)(=O)[C@H]2CCCNC2)c1O [HBr Salt]
5

* * *

assay: Solubility in simulated gastric/intestinal fluids and pH media; assay type: physicochemical; conditions: fed-state simulated intestinal fluid (Phares FeSSIF), fessif, thermodynamic from solid, Batch 2, Phares FeSSIF pH .5, 24 hr
Where a name gives a salt, the structure may show the parent alone.
property label: solubility at 24 hr (µg/mL)
One number for each entry, in µg/mL.

Bench note: what solubility at 24 hr did Cc1c(F)cccc1NC(=O)Nc1ccc(Cl)c(S(=O)(=O)[C@H]2CCCNC2)c1O [HBr Salt] show?
834

* * *

assay: Solubility in simulated gastric/intestinal fluids and pH media; assay type: physicochemical; conditions: fasted-state simulated intestinal fluid (Phares FaSSIF), pH 6.5, fassif, thermodynamic from solid, Batch 3, Phares FaSSif pH 6.5, 0.5 hr
Structures can show the parent of a compound that is named as a salt.
property label: solubility at 0.5 hr (µg/mL)
Answers are plain numbers, in µg/mL.

Which solubility at 0.5 hr reading was recorded for the compound Cc1c(F)cccc1NC(=O)Nc1ccc(Cl)c(S(=O)(=O)[C@H]2CCCNC2)c1O [HBr Salt] ?
459

* * *

assay: Solubility in simulated gastric/intestinal fluids and pH media; format: physicochemical; details: fed-state simulated intestinal fluid (Phares FeSSIF), fessif, thermodynamic from solid, Batch 1, Phares FeSSIF pH .5, 4 hr
Structures can show the parent of a compound that is named as a salt.
property label: solubility at 4 hr (µg/mL)
Answers are plain numbers, in µg/mL.

Any idea what its solubility at 4 hr is? The compound is Cc1c(F)cccc1NC(=O)Nc1ccc(Cl)c(S(=O)(=O)[C@H]2CCCNC2)c1O [HBr Salt]
833

* * *

assay: Solubility in simulated gastric/intestinal fluids and pH media; format: physicochemical; conditions: SGF (simulated gastric fluid), pH 1.6, simulated gastric fluid, thermodynamic from solid, Batch 2, SGF pH 1.6, 4 hr
Where a name gives a salt, the structure may show the parent alone.
property label: solubility at 4 h (µg/mL)
Give bare numbers, in µg/mL.

Reported solubility at 4 h for Cc1c(F)cccc1NC(=O)Nc1ccc(Cl)c(S(=O)(=O)[C@H]2CCCNC2)c1O [HBr Salt] : what is it?
647

* * *

experiment: Solubility in simulated gastric/intestinal fluids and pH media; assay type: physicochemical; conditions: simulated gastric fluid (SGF), pH 1.6, simulated gastric fluid, thermodynamic from solid, Batch 3, SGF pH 1.6, 4 hr
Where a name gives a salt, the structure may show the parent alone.
property label: solubility at 4 hr
// unit must come after the numeric part

GET /values?readout=solubility at 4 hr&item= Cc1c(F)cccc1NC(=O)Nc1ccc(Cl)c(S(=O)(=O)[C@H]2CCCNC2)c1O [HBr Salt]
795 µg/mL

* * *

experiment: Solubility in simulated gastric/intestinal fluids and pH media; format: physicochemical; details: fed-state simulated intestinal fluid (Phares FeSSIF), fessif, thermodynamic from solid, Batch 1, Phares FeSSIF pH .5, 24 hr
Where a name gives a salt, the structure may show the parent alone.
property label: solubility at 24 hr (mg/mL)
One number for each entry, in mg/mL.

Which measured solubility at 24 hr value corresponds to Cc1c(F)cccc1NC(=O)Nc1ccc(Cl)c(S(=O)(=O)[C@H]2CCCNC2)c1O [HBr Salt] ?
0.788

* * *

assay: Solubility in simulated gastric/intestinal fluids and pH media; type: physicochemical; conditions: fed-state simulated intestinal fluid (Phares FeSSIF), fessif, thermodynamic from solid, Batch 3, Phares FeSSIF pH .5, 0.5 hr
Structures can show the parent of a compound that is named as a salt.
property label: solubility at 0.5 hr (µg/mL)
One number for each entry, in µg/mL.

So what's the measured solubility at 0.5 hr for this one? Cc1c(F)cccc1NC(=O)Nc1ccc(Cl)c(S(=O)(=O)[C@H]2CCCNC2)c1O [HBr Salt]
724

* * *

assay: Solubility in simulated gastric/intestinal fluids and pH media; assay type: physicochemical; settings: SGF (simulated gastric fluid), pH 1.6, simulated gastric fluid, thermodynamic from solid, Batch 1, SGF pH 1.6, 4 hr
Structures can show the parent of a compound that is named as a salt.
property label: solubility at 4 h (mg/mL)
Give bare numbers, in mg/mL.

I would be grateful if you could share the reported solubility at 4 h for Cc1c(F)cccc1NC(=O)Nc1ccc(Cl)c(S(=O)(=O)[C@H]2CCCNC2)c1O [HBr Salt] .
0.787

* * *

experiment: Solubility in simulated gastric/intestinal fluids and pH media; assay type: physicochemical; conditions: SGF (simulated gastric fluid), pH 1.6, simulated gastric fluid, thermodynamic from solid, SGF pH1.6, 24 hr
property label: solubility at 24 h (µg/mL)
One number for each entry, in µg/mL.

What value of measured solubility at 24 h is listed for Cc1c(F)cccc1NC(=O)Nc1ccc(Cl)c(S(=O)(=O)[C@H]2CCCNC2)c1O [Micronised free base, reference compound] ?
842

* * *

test: Solubility in simulated gastric/intestinal fluids and pH media; assay type: physicochemical; conditions: pH 8, aqueous buffer, thermodynamic from solid, pH 8.0, 24 hr
Structures can show the parent of a compound that is named as a salt.
property label: solubility at 24 h (µg/mL)
Answers are plain numbers, in µg/mL.

// solubility at 24 h lookup, key: Cc1c(F)cccc1NC(=O)Nc1ccc(Cl)c(S(=O)(=O)[C@H]2CCCNC2)c1O [HBr Salt]
8
